Dear all, this message contains Ki results, target or system human μ opioid receptor (Homo sapiens, UniProt P35372).
Note: unit nM is implicit; provide only the numeric part.

CC1C2Cc3ccc(C(=O)NCCc4ccc(-c5ccc(CN(C)C)cc5)cc4)cc3C1(C)CCN2CC1CC1 (stereo not shown) [SJJ-C-013b] tested on human μ opioid receptor (Homo sapiens, UniProt P35372) gave Ki: 0.094

// Ki (human μ opioid receptor (Homo sapiens, UniProt P35372)) for CC1C2Cc3ccc(C(=O)NCCc4ccc(-c5ccc(NC(=O)OC(C)(C)C)cc5)cc4)cc3C1(C)CCN2CC1CC1 (stereo not shown) [SJJ-C-027b] = 0.32

Form field, Ki with human μ opioid receptor (Homo sapiens, UniProt P35372), item CC1C2Cc3ccc(C(=O)NCCc4ccc(-c5cccc(N(C)C)c5)cc4)cc3C1(C)CCN2CC1CC1 (stereo not shown) [SJJ-B-074c] : 0.18

Result for CC1C2Cc3ccc(C(=O)NCCc4ccc(-c5ccc(N)cc5)cc4)cc3C1(C)CCN2CC1CC1 (stereo not shown) [SJJ-B-112g] , tested on human μ opioid receptor (Homo sapiens, UniProt P35372), Ki: 0.0014
